Provide the recorded self-cleavage for the entries that follow.
B1: HDV Ribozyme (parent)
chain: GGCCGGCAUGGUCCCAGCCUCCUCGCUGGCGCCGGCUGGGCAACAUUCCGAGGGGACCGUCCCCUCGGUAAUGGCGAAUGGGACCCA

- Variants of: B1
- RUN DESCRIPTION: self-cleavage, relative activity (ratio to wild type); higher = more cleavage; co-transcriptional
API doc: respond with a numeric literal and nothing else, no unit.

response.value for C22A C41A (field: self-cleavage) = 0.475

Looking up C66A G82A , I see its self-cleavage listed as 0.356

A8U G53A yielded self-cleavage of 0.665

The reported self-cleavage of the variant G35A C84A was 0.62

Per the records, this variant ( G25A A78U ) has self-cleavage equal to 0.0346

So, C63G C75G ? Its self-cleavage was 0.0489

// provenance: the RNAGym collection of RNA variant scans (doi:10.7554/elife.80360)
